Data provenance: patent US10653779B2

Could you please report measured Oxidation Potential (anodic peak) for the items listed next?
# Assay text: Cyclic voltammetry (CV) screening of oxidation potentials
# Format: physicochemical
# Test context: glassy carbon working electrode, 0.2 M lithium perchlorate
Give bare numbers, in V vs Ag/AgCl.

Compound: N[C@@H](Cc1c[nH]c2ccc(O)cc12)C(=O)O [5-Hydroxy-L-Trp, 5-Hydroxy-Tryptophan]
Unit annotation: V vs Ag/AgCl
Numeric result: 0.565

Dear colleague, could you please provide Oxidation Potential (anodic peak) for the compounds listed below?
1. O=C(O)Cc1c[nH]c2ccccc12
2. NCCc1c[nH]c2ccccc12
3. N[C@@H](Cc1c[nH]c2ccc(F)cc12)C(=O)O
4. NC(Cc1c[nH]c2ccc([N+](=O)[O-])cc12)C(=O)O (racemic)
5. Nc1ccc2[nH]cc(C[C@H](N)C(=O)O)c2c1 (racemic)
6. COc1ccc2[nH]cc(C[C@H](N)C(=O)O)c2c1 (racemic)

1: 0.948; 2: 1.010; 3: 0.965; 4: 1.055; 5: 0.410; 6: 0.890

Value of measured Oxidation Potential (anodic peak) for the entry O=C(O)Cc1c[nH]c2ccc(O)cc12 [5-Hydroxyindole-3-Acetic Acid, 5-Hydroxy Indole-3-Acetic Acid] : 0.535

---

# Assay text: Photosensitivity screening: H2O2 formation by antioxidant candidates upon light exposure (Amplex Ultra Red Assay)
# Type: physicochemical
# Test context: 1 mM in 20 mM histidine acetate pH 5.5, four hours of light at 250 W/m^2
Class (required): determined from (H2O2 produced by Compound)/(H2O2 produced by L-Trp); valid ranges are lower bin = under 0.1, middle bin = from 0.1 up to 0.4, upper bin = 0.4 and over

Molecule: NC(=O)[C@@H](N)Cc1c[nH]c2ccccc12 [L-Trpamide, Tryptophanamide]
Assigned class: upper bin
--
Molecule: Cc1ncc(CO)c(CO)c1O [Pyridoxine]
Assigned class: upper bin
--
Molecule: CC(=O)N[C@@H](Cc1c[nH]c2ccccc12)C(=O)O [N-Acetyl-L-Trp, N-Acetyl-Tryptophan]
Assigned class: middle bin
--
Molecule: N[C@@H](Cc1c[nH]c2ccc(F)cc12)C(=O)O [5-Fluoro-L-Trp, 5-Fluoro-Tryptophan]
Assigned class: upper bin
--
Molecule: N[C@@H](Cc1c[nH]c2ccc(O)cc12)C(=O)O [5-Hydroxy-L-Trp, 5-Hydroxy-Tryptophan]
Assigned class: lower bin

Please let me know in which category the item Oc1ccc2[nH]ccc2c1 [5-Hydroxyindole, 5-Hydroxy Indole] belongs. lower bin

Please let me know in which category the item c1ccc2[nH]ccc2c1 [Indole] belongs. upper bin

Please let me know in which category the item O=C(O)c1cc2cccc(O)c2[nH]1 [7-Hydroxyindole-2-Carboxylic Acid, 7-Hydroxy Indole-2-Carboxylic Acid] belongs. middle bin

Please let me know in which category the item Nc1ccccc1C(=O)CC(N)C(=O)O [L-Kynurenine, Kynurenine] belongs. middle bin

Please let me know in which category the item Oc1cccc2cc[nH]c12 [7-Hydroxyindole, 7-Hydroxy Indole] belongs. lower bin

---

# Assay text: Photosensitivity screening: H2O2 formation by antioxidant candidates upon light exposure (Amplex Ultra Red Assay)
# Assay type: physicochemical
# Test context: 1 mM, 20 mM L-His-acetate pH 5.5, 4 h light, 0.22 million lux hours
Parameter: H2O2 production upon light exposure compared to L-Trp (in words)

Compound: COc1ccc2[nH]cc(C[C@H](N)C(=O)O)c2c1 (racemic) [5-Methoxy-DL-Trp, 5-Methoxy-Tryptophan]
Result: produced more H2O2

Compound: N[C@@H](Cc1c[nH]c2ccc(F)cc12)C(=O)O [5-Fluoro-L-Trp, 5-Fluoro-Tryptophan]
Result: produced more H2O2
